Ref: the supplement of paper PMC10567573

experiment: protein stability index of a GFP-peptide fusion (GPS, HEK-293T) (PSI 1-6); higher = more stable; conditions: treatment: DMSO; c terminus: a fixed tail appended;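 note: 24-mer peptide tiles fused after GFP, lentivirally expressed, FACS-sorted into six equal bins by GFP/DsRed ratio, decoded by Illumina sequencing, PSI is the read-weighted mean bin number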
Items are presented alongside their recorded protein stability index.
# print the numeric value only

GATCMFVASKMKETIPLTAEKLCI [CCND1] : 2.34
SGEKYDPDANTWTALPPMNEARHN [GAN] : 4.61

Supply protein stability index value. Item: SHLCSCLAMLALLSPLSLAQYDSW [LOXL2]
3.02

Write down protein stability index measured for item HLRPELRSQMQGPRTRARLGANEV [KLHL12]
4.23

Supply reported protein stability index belonging to this sequence: IGYVHIYLKGQREKSEKINAMLKG [GOSR1]
2.21

// Input: VLVLAVQVHAWQLYYSKKLLDSWF [JAGN1] . Output its protein stability index only.
3.23

* * *

test: protein stability index of a GFP-peptide fusion (GPS, HEK-293T) (PSI 1-6); higher = more stable; settings: treatment: DMSO; c terminus: a fixed tail appended
Form field: protein stability index (one value per entry).
Please give only the number in your answer, with no unit.

GGNVECIKLLQSSGADFHKKDKCG [ANKRD44] : 4.48

Hello, please tell me recorded protein stability index for this one: EEMWTFRGKIHAFRGQILGFWEEE [CCDC70]
2.15

Write down protein stability index measured for item GGSGGGAGGAGGGVTEEQEGFADG [JUNB]
5.5

* * *

assay: protein stability index of a GFP-peptide fusion (GPS, HEK-293T) (PSI 1-6); higher = more stable; settings: treatment: DMSO; c terminus: a fixed tail appended
Record TRUE whenever protein stability index is at 4 or higher; record FALSE when lower.

DPACYEFLWGPRALVETSYVKVLH [MAGEA3] : FALSE
MEQVHRGIKGLVRDSHGKGIPNAI [CPXM2] : FALSE
SSSVSISHSASATGNVCIEEIDVD [LMNB1] : TRUE

Record LQTPLDIRLKESINCQLSDPSSTK [TRIM14] ; criterion: protein stability index no lower than 4. Met?
TRUE

* * *

assay: protein stability index of a GFP-peptide fusion (GPS, HEK-293T) (PSI 1-6); higher = more stable; details: treatment: DMSO; c terminus: a fixed tail appended
attribute.measured: protein stability index
Give a plain numeric answer without units written out.

Study these solved cases before continuing.
SIQWPGKRSSRRVQRHNSFSPNSP [NECAB1] : 3.54
DPVLAKVAGDCLDEKQCKQCANKV [LRRC59] : 4.99
AQLELYQLQVESNSSQLLLRRHAG [SCARA5] : 2.71
LLQHLLEACGRCEEVPEAYVDIHT [PYCR3] : 2.1
NGEYVPWLYCYDPVMDVWARKQDM [KLHL14] : 2.49
IRVKIADLGNACWVHKHFTEDIQT [SRPK2] : 2.43
PTVTIEGFLQALSLAVDKQFEERK [TRIP13] : 2.29
SRIYGQAMAIINGSLYVFGGTTGY [KLHDC10] : 2.92

Determine from records and report protein stability index for GVGAVPGPGTPTGPSLPSKRESPG [ZBTB22]
5.41

Fill in reported protein stability index for this entry: IETSALDSTNVEAAFQTILTEIYR [RAB11A]
2.35

Indicate the recorded protein stability index value for this sequence: LYRDDVLIKPSRVVAILAAACLLQ [GMCL1]
3.05

Input VHLVIWLLLVAKMSVGHLRLLSHD [JAGN1] , output reported protein stability index.
3.39

Item GSGQRVPALEEAPDSHQKRPQHSH [ELOA2] : provide protein stability index
5.26

Name the recorded protein stability index of the item SILLCLLASGLVVFFLFPHSVLVD [TMEM106C] in your answer.
3

Give recorded protein stability index. RKSSFAFYQAVRDLLPVWLLEDMR [ANKRD9]
3.03

Identify the reported protein stability index for the following entry. APSCAIMISTYEFGKSFFQRLNQD [SLC25A39]
2.47

State its protein stability index: RLINHSKCGNCQTKLHDIDGVPHL [KMT5A]
2.67

Supply protein stability index value. Item: ANYTCVAMSTLGVIEAIAQITVKA [PTPRD]
2.63

Please give measured protein stability index of the following entry: GLPGPEAARSGDAAANKLFHYIPG [PLEKHN1]
3.93

* * *

experiment: protein stability index of a GFP-peptide fusion (GPS, HEK-293T) (PSI 1-6); higher = more stable; conditions: treatment: MLN4924 1 uM, 8 h; c terminus: a fixed tail appended
Listing of recorded protein stability index by entry.
Keep it simple and answer with nothing but the number.

Some solved entries appear below for comparison.
QDPQLHSPFSGSLHAPPAFYSTSS [VENTX] : 3.75
YVGEPLVCEVQVHGGSLLGKKYNW [GFOD1] : 2.18
AQAIDFINRCSVLRQLGCKDGKNW [SPOPL] : 2.58
MPVQLTSRREIRKIMGVEEEDDDD [ANKRD40] : 5.57
RAGTEPSDAIRVVNAVLTQIDQIK [TRIP13] : 3.04

Entry LLSLDPVQDKTPLYSQLLQAYKWS [MED27] needs its protein stability index filled in; supply it.
1.97

Provide protein stability index value for the following sequence: FESGSVSFLNVTKSSLIWSYPAGS [TRIM43]
2.11

Report measured protein stability index; entry is ALAIKVNLCGHWYYSKACCRSCRP [ADAMTSL2]
2.77

Supply reported protein stability index belonging to this sequence: GVGGAERLVLDAALALQARGCSVK [ALG2]
3.28

Note protein stability index for the sequence shown: LGGEDGEKELISMECYDIYSKTWT [GAN]
3.19

Query protein stability index for ILVYDIANRWSFEGMDRWIKKIEE [RAB40A]
2.34

Supply protein stability index value. Item: VDVQTELYLEEIADRIIEVDMECQ [RSPH3]
3.12

Write down protein stability index measured for item EEIRGGGLLKYCSLLVHGFKPACM [TENT5D]
2.35

Query protein stability index for MLLGVPRLRQLKVRNDSCVVHEDF [PKD2L1]
2.52

* * *

test: protein stability index of a GFP-peptide fusion (GPS, HEK-293T) (PSI 1-6); higher = more stable; conditions: treatment: MLN4924 1 uM, 8 h; c terminus: a fixed tail appended
Short version: protein stability index at least 3 is y, less is n.

Some solved cases for reference:
VYMTEPIDEYCVQQLKEFDGKSLV [HSP90AB1] : y
ERCNQLLRALKLVITALKCHKYDR [ZER1] : n
KPSFQSGGRRRPPASSRNRSPSGS [RBMY1A1] : y
GGSGGGAGGAGGGVTEEQEGFADG [JUNB] : y
IVDKCTELLREGRASATTTITTAA [ZBTB22] : y

Please check the record LTLAQGAGEEDPSGMVTIITGLPL [SMG5] and state if its protein stability index is at or above 3.
n

Is protein stability index at least 3? Consider EAAEGKSLGSALKPGEGRSALFAG [TRIM29]
y

* * *

experiment: protein stability index of a GFP-peptide fusion (GPS, HEK-293T) (PSI 1-6); higher = more stable; details: treatment: DMSO; c terminus: a fixed tail appended
Outcome: True for protein stability index of at least 3; False for anything lower.

Previously resolved entries follow.
KAETKTKKAAESLRRSVEKYNSAR [FCHO1] : True
VGYTALVGSDAESWGWDLGRSRLY [SPSB4] : False

API: above_or_equal(metric=protein stability index, cutoff=3) for item RLASFDSSGKLICSRTTGYQILTL [GMCL1]
False

Textbook exercise: given the entry VPMILVGNKCDLEDERVVGKEQGQ [RAP1B] , state whether its protein stability index is greater than or equal to 3.
True

Does protein stability index meet or surpass 3 for SIPLERIHFDSYITCVSGAIVDLI [FBXO33] ?
False

* * *

assay: protein stability index of a GFP-peptide fusion (GPS, HEK-293T) (PSI 1-6); higher = more stable; conditions: treatment: DMSO; c terminus: a fixed tail appended
List of protein stability index values.
Answer using only a numeral; do not append any unit.

Below: 5 sequences and their reported protein stability index.
LGYLLLGAATNVFLFVLARVPAGI [MFSD9] : 3.29
ELSRIVLMRHGMEKIWRPNRVFSL [RAB40C] : 2.37
RTFGPPPSLSPGAFSYSSSSRFSS [PRPH] : 3.42
TPLHLDLTQLHRLSLESSPDAPDH [PLEKHN1] : 4.59
MDDPKGDFITLYQMASQSSASHYK [M1AP] : 3.27

Return reported protein stability index. Input sequence: RLRQLKVRNDSCVVHEDFREDILS [PKD2L1]
3.47

Return value of protein stability index for input YQDKIRPYIQLPSHSNITGIVEVI [TRIB1] , no commentary.
2.39

Return reported protein stability index. Input sequence: FPALLSTGEFLKLPFERLAFVLSS [KLHL13]
2.95
